MIC Enterococcus faecalis (GC 4553) listing for selected compounds.
# System: Enterococcus sp.
# protocolNotes: In vitro antibacterial evaluation: minimum inhibitory concentration (MIC), broth dilution method
# Format: cell-based
# runParameters: Enterococcus faecalis (GC 4553)
Entry rule: numbers only, all in µg/mL.

>>> measured("CCC(C)C(=O)OC1C(CO)OC(OC2C(CO)OC(Oc3ccc(CC4NC(=O)C(C(C)c5ccccc5)NC(=O)CNC(=O)C(CO)NC(=O)C(C(O)C5CNC(=N)N5C5OC(CO)C(O)C(O)C5O)NC(=O)C(C(O)C5CNC(=N)N5)NC4=O)cc3)C(O)C2O)C(O)C1O (stereo not shown) [Example 278c]")
32

Exercise: Look up MIC Enterococcus faecalis (GC 4553) for this compound: CC(C)CC(=O)OC1C(O)C(CO)OC(OC2C(CO)OC(Oc3ccc(CC4NC(=O)C(C(C)c5cccc(F)c5)NC(=O)CNC(=O)C(CO)NC(=O)C(C(O)C5CNC(=N)N5C5OC(CO)C(O)C(O)C5O)NC(=O)C(C(O)C5CNC(=N)N5)NC4=O)cc3)C(O)C2O)C1O (stereo not shown) [Example 264b]
Solution: 64

Exercise: Look up MIC Enterococcus faecalis (GC 4553) for this compound: CC(C)CC(=O)OC1C(O)C(CO)OC(OC2C(CO)OC(Oc3ccc(CC4NC(=O)C(C(C)c5ccc(Cl)cc5)NC(=O)CNC(=O)C(CO)NC(=O)C(C(O)C5CNC(=N)N5C5OC(CO)C(O)C(O)C5O)NC(=O)C(C(O)C5CNC(=N)N5)NC4=O)cc3)C(O)C2O)C1O (stereo not shown) [Example 262b]
Solution: 32

----------
# System: Streptococcus sp.
# protocolNotes: In vitro antibacterial evaluation: minimum inhibitory concentration (MIC), broth dilution method
# Assay type: cell-based
# runParameters: strain GC 1894
MIC Streptococcus pneumoniae (GC 1894) listing for selected compounds.
Entry rule: numbers only, all in µg/mL.

>>> measured("CC(c1ccccc1)C1NC(=O)CNC(=O)C(CO)NC(=O)C(C(O)C2CN(CCCCCCCCCCC(=O)O)C(=N)N2C2OC(CO)C(O)C(O)C2O)NC(=O)C(C(O)C2CNC(=N)N2)NC(=O)C(Cc2ccc(OC3OC(CO)C(OC4OC(CO)C(O)C(O)C4O)C(O)C3O)cc2)NC1=O (stereo not drawn)")
16

Lab note: next compound to report on.
Exercise: Look up MIC Streptococcus pneumoniae (GC 1894) for this compound: CC(c1ccccc1)C1NC(=O)CNC(=O)C(CO)NC(=O)C(C(O)C2CN(CCCCCCCCCCCCO)C(=N)N2C2OC(CO)C(O)C(O)C2O)NC(=O)C(C(O)C2CNC(=N)N2)NC(=O)C(Cc2ccc(OC3OC(CO)C(OC4OC(CO)C(O)C(O)C4O)C(O)C3O)cc2)NC1=O (stereo not drawn)
Solution: 64

----------
# System: Enterococcus sp.
# protocolNotes: In vitro antibacterial evaluation: minimum inhibitory concentration (MIC), broth dilution method
# Type: cell-based
# runParameters: broth dilution, inoculum 5×10^5 CFU/mL, 18 hours at 35° C.
MIC Enterococcus faecium (GC 4556) listing for selected compounds.
Entry rule: numbers only, all in µg/mL.

>>> measured("CC(c1ccccc1)C1NC(=O)CNC(=O)C(CO)NC(=O)C(C(O)C2CNC(=N)N2C2OC(CO)C(O)C(O)C2O)NC(=O)C(C(O)C2CNC(=N)N2)NC(=O)C(Cc2ccc(OC3OC(CO)C(OC4OC5COC6(CC(C)(C)CC(C)(C)C6)OC5C(O)C4O)C(O)C3O)cc2)NC1=O (centres unmarked)")
4

Lab note: next compound to report on.
Exercise: Look up MIC Enterococcus faecium (GC 4556) for this compound: CC(c1ccccc1)C1NC(=O)CNC(=O)C(CO)NC(=O)C(C(O)C2CNC(=N)N2C2OC(CO)C(O)C(O)C2O)NC(=O)C(C(O)C2CNC(=N)N2)NC(=O)C(Cc2ccc(OC3OC(CO)C(OC4OC5COC6(OC5C(O)C4O)C(C)CCCC6C)C(O)C3O)cc2)NC1=O (centres unmarked)
Solution: 1
